Ref: patent US20250019437A1

- TARGET_SYSTEM: T1, human TREM2 (triggering receptor expressed on myeloid cells 2) (human) (UniProt Q9NZC2)
- T1 sequence (looked up): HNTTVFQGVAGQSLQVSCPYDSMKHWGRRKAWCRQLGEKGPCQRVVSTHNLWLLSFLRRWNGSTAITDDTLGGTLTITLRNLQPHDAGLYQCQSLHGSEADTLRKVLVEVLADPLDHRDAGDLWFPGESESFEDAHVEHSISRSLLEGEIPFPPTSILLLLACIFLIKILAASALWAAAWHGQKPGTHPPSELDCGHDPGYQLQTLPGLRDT
- ASSAY_NOTES: 1st screen, 110 nM Ab
Kind request: treat 0.3 fold as inclusive, so Binding Signal (fold over 6E7 parental antibody) at 0.3 fold or higher is rule met, anything lower is rule not met.

[[record]]
binder = "6E7 antibody affinity modulation variant V93 (antibody, V domains shown) VH: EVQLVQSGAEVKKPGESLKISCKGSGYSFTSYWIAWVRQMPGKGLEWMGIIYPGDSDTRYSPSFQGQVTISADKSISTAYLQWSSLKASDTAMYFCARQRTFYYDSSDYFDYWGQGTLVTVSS VL: DIQMTQSPSSVSASVGDRVTITCRASQGISGWLAWYQQKPGKAPKLLIYAASSLQNGVPSRFSGSGSGTDFTLTISSLQPEDFATYFCQQADSFPRTFGQGTKLEIK"
label_value = "rule met"

[[record]]
binder = "6E7 antibody affinity modulation variant V94 (antibody, V domains shown) VH: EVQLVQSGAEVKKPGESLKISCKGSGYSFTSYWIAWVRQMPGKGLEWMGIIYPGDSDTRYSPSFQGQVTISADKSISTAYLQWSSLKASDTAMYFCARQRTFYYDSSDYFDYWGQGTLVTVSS VL: DIQMTQSPSSVSASVGDRVTITCRASQGISSWLAWYQQKPGKAPKLLIYAAASLQNGVPSRFSGSGSGTDFTLTISSLQPEDFATYFCQQADSFPRTFGQGTKLEIK"
label_value = "rule met"

[[record]]
binder = "6E7 antibody affinity modulation variant V9 (antibody, V domains shown) VH: EVQLVQSGAEVKKPGESLKISCKGSGYSFTSYWIAWVRQMPGKGLEWMGIIYPGDSDTRYSPSFQGQVTISADKSISTAYLQWSSLKASDTAMYFCARQRGFYYDSSDYFDYWGQGTLVTVSS VL: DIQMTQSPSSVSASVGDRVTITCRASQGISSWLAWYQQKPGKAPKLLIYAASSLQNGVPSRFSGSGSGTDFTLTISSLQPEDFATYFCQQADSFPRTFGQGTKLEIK"
label_value = "rule met"

[[record]]
binder = "6E7 antibody affinity modulation variant V33 (antibody, V domains shown) VH: EVQLVQSGAEVKKPGESLKISCKGSGYSFTSYWIAWVRQMPGKGLEWMGIIYPGDSDTRYSPSFQGQVTISADKSISTAYLQWSSLKASDTAMYFCARQRTFYGDSSDYFDYWGQGTLVTVSS VL: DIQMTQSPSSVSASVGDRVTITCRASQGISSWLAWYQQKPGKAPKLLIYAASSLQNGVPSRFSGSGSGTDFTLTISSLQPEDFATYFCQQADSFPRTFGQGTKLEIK"
label_value = "rule not met"

[[record]]
binder = "6E7 antibody affinity modulation variant V69 (antibody, V domains shown) VH: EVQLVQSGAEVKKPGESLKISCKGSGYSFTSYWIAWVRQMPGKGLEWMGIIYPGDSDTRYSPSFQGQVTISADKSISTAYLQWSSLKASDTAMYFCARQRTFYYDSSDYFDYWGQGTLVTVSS VL: DIQMTQSPSSVSASVGDRVTITCRASQGISSYLAWYQQKPGKAPKLLIYAASSLQNGVPSRFSGSGSGTDFTLTISSLQPEDFATYFCQQADSFPRTFGQGTKLEIK"
label_value = "rule met"

[[record]]
binder = "6E7 antibody affinity modulation variant V58 (antibody, V domains shown) VH: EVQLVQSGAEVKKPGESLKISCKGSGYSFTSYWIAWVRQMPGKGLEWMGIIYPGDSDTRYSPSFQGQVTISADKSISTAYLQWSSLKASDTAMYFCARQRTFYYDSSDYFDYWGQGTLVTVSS VL: DIQMTQSPSSVSASVGDRVTITCRASQGISSWLAWYQQKPGKAPKLLIYKASSLQNGVPSRFSGSGSGTDFTLTISSLQPEDFATYFCQQADSFPRTFGQGTKLEIK"
label_value = "rule not met"

[[record]]
binder = "6E7 antibody affinity modulation variant V81 (antibody, V domains shown) VH: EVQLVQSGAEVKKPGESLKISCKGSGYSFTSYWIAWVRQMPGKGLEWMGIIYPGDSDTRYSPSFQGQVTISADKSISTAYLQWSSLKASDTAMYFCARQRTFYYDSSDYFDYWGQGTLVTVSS VL: DIQMTQSPSSVSASVGDRVTITCRASQGISSLLAWYQQKPGKAPKLLIYAASSLQNGVPSRFSGSGSGTDFTLTISSLQPEDFATYFCQQADSFPRTFGQGTKLEIK"
label_value = "rule not met"

[[record]]
binder = "6E7 antibody affinity modulation variant V47 (antibody, V domains shown) VH: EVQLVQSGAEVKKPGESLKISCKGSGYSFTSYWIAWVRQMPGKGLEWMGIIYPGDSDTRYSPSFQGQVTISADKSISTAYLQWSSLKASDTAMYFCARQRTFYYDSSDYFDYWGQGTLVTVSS VL: DIQMTQSPSSVSASVGDRVTITCRASQGISSWLAWYQQKPGKAPKLLIYAASSLQNGVPSRFSGSGSGTDFTLTISSLQPEDFATYFCQQADSFPMTFGQGTKLEIK"
label_value = "rule met"

[[record]]
binder = "6E7 antibody affinity modulation variant V30 (antibody, V domains shown) VH: EVQLVQSGAEVKKPGESLKISCKGSGSSFTSYWIAWVRQMPGKGLEWMGIIYPGDSDTRYSPSFQGQVTISADKSISTAYLQWSSLKASDTAMYFCARQRTFYYDSSDYFDYWGQGTLVTVSS VL: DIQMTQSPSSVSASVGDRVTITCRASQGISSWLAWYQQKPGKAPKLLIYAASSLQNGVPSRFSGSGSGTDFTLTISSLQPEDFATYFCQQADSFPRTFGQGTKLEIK"
label_value = "rule met"

[[record]]
binder = "6E7 antibody affinity modulation variant V46 (antibody, V domains shown) VH: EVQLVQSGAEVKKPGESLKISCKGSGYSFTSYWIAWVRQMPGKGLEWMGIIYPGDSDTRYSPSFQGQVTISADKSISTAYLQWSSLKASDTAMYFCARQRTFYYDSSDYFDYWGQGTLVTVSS VL: DIQMTQSPSSVSASVGDRVTITCRASQGISSWLAWYQQKPGKAPKLLIYAASTLQNGVPSRFSGSGSGTDFTLTISSLQPEDFATYFCQQADSFPRTFGQGTKLEIK"
label_value = "rule met"

